# system under test: Thyroid hormone receptor beta (Homo sapiens) (UniProt P10828)
# Sequence (P10828 whole entry, looked up): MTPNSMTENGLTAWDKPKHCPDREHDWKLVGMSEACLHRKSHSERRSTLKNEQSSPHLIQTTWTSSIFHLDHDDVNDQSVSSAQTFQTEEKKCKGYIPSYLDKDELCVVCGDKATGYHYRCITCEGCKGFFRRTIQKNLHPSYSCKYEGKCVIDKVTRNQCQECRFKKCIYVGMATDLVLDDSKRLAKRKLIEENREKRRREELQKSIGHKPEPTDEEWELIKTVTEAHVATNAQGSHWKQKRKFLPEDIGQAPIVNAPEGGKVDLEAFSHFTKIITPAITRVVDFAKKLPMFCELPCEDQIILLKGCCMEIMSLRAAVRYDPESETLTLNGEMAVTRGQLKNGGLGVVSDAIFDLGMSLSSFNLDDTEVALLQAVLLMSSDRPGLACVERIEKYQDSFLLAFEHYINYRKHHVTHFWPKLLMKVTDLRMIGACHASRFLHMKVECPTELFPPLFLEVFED
# run description: qHTS assay for small molecule antagonists of thyroid hormone receptor beta signaling (AID 588547);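 also: cells stimulated with 0.4 nM T3 agonist during compound exposure; series mostly up to about 77 µM; % is scaled to controls: 0 for no effect and ±100 for the full control effect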
# condition info: TR-UAS-bla HEK293, beta-lactamase ratio, antagonist mode, 18 h
Inconclusive results are not listed.
measured attribute: activity change % (negative = inhibition) (%)

| compound | reported value |
| --- | --- |
| CCCCC/C=C\C/C=C\CCCCCCCC(=O)OC | -14.4 |
| O=c1[nH]c(=O)c2[nH]cnc2[nH]1 | 11.6 |
| CN(C)c1ccc(C(c2ccccc2)c2ccc(N(C)C)cc2)cc1 | 13.2 |
| CCCCCCCC(=O)OC | 13.2 |
| CC(C)=CCC[C@@H](C)[C@H]1CC[C@@]2(C)C3=C(CC[C@]12C)[C@@]1(C)CC[C@H](O)C(C)(C)[C@@H]1CC3 | -4.34 |
| CN(C)CCOCCN(C)C | -4.05 |
| CCCCCCOCCOCCO | -6.1 |
| CCC(=O)OCCc1ccccc1 | -6.7 |
| CCCCCCCCCCCCCCCCCC#N | 11.1 |
| COC(=O)c1ccc(I)cc1S(=O)(=O)NC(=O)Nc1nc(C)nc(OC)n1 | -17 |
| CS/C(=N\O)C(=O)N(C)C | -12.9 |
| Cc1ccc(S(=O)(=O)N=C=O)cc1 | 8.97 |
| c1ccc2cc3c(ccc4ccccc43)cc2c1 | -17.7 |
| CCCCCc1ccc(N)cc1 | 0.338 |
| CCCC/C=C\CCCCCCCCO | 3.63 |
| CCOCCOCCOCCO | 8.91 |
| c1ccc2cc3ccccc3cc2c1 | -13.8 |
| CC(C)C(=O)OCC(C)(C)C(O)C(C)C (centres undefined) | -5.03 |
| CC(=O)c1c(C)c([N+](=O)[O-])c(C(C)(C)C)c([N+](=O)[O-])c1C | 11 |
| c1ccc2c(c1)Cc1ccccc1-2 | -15.6 |
| C[Si]1(C)O[Si](C)(C)O[Si](C)(C)O[Si](C)(C)O1 | 11 |
| C=C(C)C(=O)OCCCCCCCCCCCC | 0.53 |
| CC1(C)CC(NCCCCCCNC2CC(C)(C)NC(C)(C)C2)CC(C)(C)N1 | -26.6 |
| CCOCCOCCOC(C)=O | 14 |
| Nc1ccc(N)c2c1C(=O)c1c(N)ccc(N)c1C2=O | 20.4 |
| CNc1nc(=O)n(C2CCC(O)CC2)c(=O)n1C (centres undefined) | -13.9 |
| S=C(S)NCCNC(=S)S | -7.47 |
| CC(C)(N=C=O)c1cccc(C(C)(C)N=C=O)c1 | -9.67 |
| CCCCCCc1ccc(N)cc1 | 1.93 |
